B1: mRNA-splicing (parent)
chain: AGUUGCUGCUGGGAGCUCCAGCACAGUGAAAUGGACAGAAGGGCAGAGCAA

Variants of: B1
Assay: exon inclusion enrichment index; higher = more inclusion; WT1 exon 5 minigene, HEK293
Mark true (1) for reported exon inclusion enrichment index of 2 or greater; mark false (0) for anything smaller.

{"mutations": "C6A U7A C9A U10A A35U C36A", "class_assignment": "false (0)"}
{"mutations": "G5C C6A U7C G8C C9G U10A", "class_assignment": "true (1)"}
{"mutations": "C6A U7A C9A U10A G11A G12U", "class_assignment": "false (0)"}
{"mutations": "G5C C6A U7C G8A U10A A45G", "class_assignment": "false (0)"}
{"mutations": "C6A U7C C9A U10C C22A A23U", "class_assignment": "true (1)"}
{"mutations": "G5C C6U G8C C9U U10C C16A U17C", "class_assignment": "false (0)"}
{"mutations": "G5U G8U C9U A35C", "class_assignment": "false (0)"}
{"mutations": "G5C C6U G8C C9U U10C U27C G28A", "class_assignment": "false (0)"}
{"mutations": "C6A U7A C9A U10A G33A G34A", "class_assignment": "false (0)"}
{"mutations": "G5C C6U G8C C9U U10C A31U U32C", "class_assignment": "true (1)"}
{"mutations": "C6A U7A C9A U10A C19G A20U", "class_assignment": "false (0)"}
{"mutations": "G5A C6U U7C C9A U10C", "class_assignment": "true (1)"}
{"mutations": "G2U G5C C6U G8C C9U U10C", "class_assignment": "true (1)"}
{"mutations": "G5A U7C G8A U10C G13A", "class_assignment": "true (1)"}
{"mutations": "C6A U7C C9A U10C U27G G28C", "class_assignment": "true (1)"}
{"mutations": "G5A C6U U7A G8U C9A G15A C16U", "class_assignment": "false (0)"}
{"mutations": "G5C C6U G8C C9U U10C U27C G28U", "class_assignment": "false (0)"}
{"mutations": "A31C U32A", "class_assignment": "false (0)"}
{"mutations": "C6A U7C C9A U10C G11C G12A", "class_assignment": "true (1)"}
{"mutations": "G5C C6A U7C G8A U10A G48A", "class_assignment": "false (0)"}
{"mutations": "C6A U7C C9A U10C A47G", "class_assignment": "false (0)"}
{"mutations": "G5C C6G U7C U10C U17C C18G", "class_assignment": "true (1)"}
{"mutations": "C6A U7C C9A U10C U27A G28C", "class_assignment": "true (1)"}
{"mutations": "G5A C6U U7A G8U C9A G26U U27A", "class_assignment": "false (0)"}
{"mutations": "G5C C6G U7C", "class_assignment": "false (0)"}
{"mutations": "G5A C6G U7G C9A G46A A47U", "class_assignment": "false (0)"}
{"mutations": "C6A U7C C9A U10C U32G G33C", "class_assignment": "true (1)"}
{"mutations": "C6A U7C C9A U10C C16A U17C", "class_assignment": "true (1)"}
{"mutations": "C6A G8U C9U", "class_assignment": "false (0)"}
{"mutations": "U3C U4G G5C C6U G8C C9U U10C", "class_assignment": "false (0)"}
{"mutations": "G5C C6G U7C U10C C18A", "class_assignment": "true (1)"}
{"mutations": "G5A C6G U7G C9A G13C A14U", "class_assignment": "false (0)"}
{"mutations": "G5U G8U C9U G46U A47G", "class_assignment": "false (0)"}
{"mutations": "G33C G34A", "class_assignment": "false (0)"}
